# test_method_notes: Toxicity liver stage against HepG2, at 10uM
# Type: cell-based
# Design: test concentration 10 uM, cell line HepG2-A16-CD81EGFP
# condition_context: human, HepG2-A16-CD81EGFP cells; read-out: INHIBITION
readout_name: cytotoxicity at 10 µM

> print(dat)
                                    compound           readout.name  endpoint.value
 1    FC(F)C(F)(F)COCc1ncnn1-c1ccc2c(c1)OCO2  cytotoxicity at 10 µM          -2.82%
 2        c1ncc2c(n1)CN(c1ncnc3[nH]ccc13)CC2  cytotoxicity at 10 µM          -4.28%
 3  CCC[C@@H]1CN(Cc2cc(C#N)n(C)c2C)C[C@H]1NS(C)(=O)=O  cytotoxicity at 10 µM           -132%
 4  C[C@H](NC(=O)C1(N(C)Cc2ccccc2)Cc2ccccc2C1)C(N)=O  cytotoxicity at 10 µM          0.521%
 5  CC(C)(C)CN1CCCC(c2nccnc2Nc2cnccn2)C1 (stereo not given)  cytotoxicity at 10 µM           5.37%
 6           CCc1ccc(CCC(=O)NCc2nnc[nH]2)cc1  cytotoxicity at 10 µM           7.47%
 7  Cc1ccc(-c2nc(CNC(C)CCO)[nH]c2-c2ccccn2)cc1 (stereo not given)  cytotoxicity at 10 µM          -6.78%
 8  O=C(O)C1(Oc2ccc3ccccc3c2)CCN(c2ncccn2)CC1  cytotoxicity at 10 µM           1.46%
 9                     Cc1cccc2c1ccn2CC(=O)O  cytotoxicity at 10 µM           9.49%
10  CCOCCCNC(=O)C1(C)CCC(=O)N1c1ccccc1OC (stereo not given)  cytotoxicity at 10 µM           2.89%
11  O=C(c1ccn[nH]1)N1CCCC(n2cncn2)C1 (stereo not given)  cytotoxicity at 10 µM           1.56%
12  Cn1cccc1C(=O)NC[C@H]1C[C@@H]2CN(C(=O)c3ccno3)C[C@H]2O1  cytotoxicity at 10 µM          0.903%
13  c1ccc(N2CCOC3(CCCN(c4nncs4)C3)C2)nc1 (stereo not given)  cytotoxicity at 10 µM           9.17%
14  CC(C)C[C@H](N)COc1cccc(F)c1Oc1cccc(Cl)c1  cytotoxicity at 10 µM           86.1%
15  Cc1cccc(-n2cc(C(=O)N3CCn4c(C)nnc4C3)nn2)c1  cytotoxicity at 10 µM          -10.1%
16  Cc1cc(NC(C)c2nncn2C2CCCC2)n2nc(C)cc2n1 (stereo not given)  cytotoxicity at 10 µM           5.99%
17      Cc1cc(N(C)CCCn2cccn2)nc(-c2cccnc2)n1  cytotoxicity at 10 µM           16.3%
18        c1ccc(CCc2n[nH]c(CCN3CCCCC3)n2)cc1  cytotoxicity at 10 µM           5.05%
19  Cc1[nH]ncc1C(C)NCc1cccnc1 (stereo not given)  cytotoxicity at 10 µM          -0.98%
20  O=C(NC1CCN(c2ccc(-c3ccccc3F)nn2)C1)C1CCC1 (stereo not given)  cytotoxicity at 10 µM             26%
21  Cc1ccc(CN2CC(O)CN(C(=O)OCC(C)C)CC2=O)cc1 (stereo not given)  cytotoxicity at 10 µM          -3.09%
22  CCC(O)CN1CCN(C(=O)c2csc(COC)n2)CC1 (stereo not given)  cytotoxicity at 10 µM           7.72%
23  COc1ccccc1Oc1ncccc1CNC(=O)C1(C)CCCNC1 (stereo not given)  cytotoxicity at 10 µM          -2.56%
24  O=C(c1ccc(OCC2CC2)nc1)N1CCCC(n2cncn2)C1 (stereo not given)  cytotoxicity at 10 µM          -3.25%
25  CC(NCCCn1ccnc1)c1ccc(N2CCOC2=O)cc1 (stereo not given)  cytotoxicity at 10 µM          -8.48%

###

# test_method_notes: Toxicity liver stage against HepG2, at 10uM
# Assay type: cell-based
# Parameters: test concentration 10 uM, cell line HepG2-A16-CD81EGFP
# condition_context: human, HepG2-A16-CD81EGFP cells; read-out: INHIBITION
readout_name: cytotoxicity at 10 µM (%)

> print(dat)
                                    compound  endpoint.value
 1       c1csc(CN2Cc3[nH]nc(COCC4CC4)c3C2)c1            6.22
 2  Cc1nn(C)c(C)c1NC(=O)CN1CCCC1c1c(C)nn(C)c1C (configuration not stated)           -6.44
 3  CCC(NC(=O)Nc1ccc(OC)c(C)c1)c1ccncc1 (configuration not stated)           -2.07
 4  CC(C)C(O)CNC(=O)CCCc1ccccn1 (configuration not stated)           0.665
 5     Cc1cc(N(C)Cc2noc(C)n2)n2nc(C)c(C)c2n1            14.4
 6  CNC(=O)C1CN(C(=O)c2cccs2)CCN(S(C)(=O)=O)C1 (configuration not stated)            2.41
 7             Cc1ccc(Cl)c2ccc(NC(CO)CO)nc12           -12.1
 8  Cn1[nH]c(C2CCCN(C(=O)CO)C2)cc1=O (configuration not stated)            2.01
 9  Fc1cccnc1O[C@@H]1CN(Cc2ccco2)[C@@H]2CCCO[C@@H]21            5.08
10  CC(=O)N1Cc2ccnn2CC(C(=O)NCc2cccnc2)C1 (configuration not stated)             -97
11  CC1CCN(c2nc3cn(-c4ccc(F)cc4)c(=O)c-3c[nH]2)CC1            3.47
12  CC(O)CN1CCC(CNCCOCC(F)(F)F)CC1 (configuration not stated)            4.91
13  Cc1cc(N2C[C@H](NC(=O)C3(C#N)CCOCC3)[C@@H](C(C)C)C2)ccn1            -4.1
14  NC(=O)N1CCC2(CCN(Cc3ccccn3)C2=O)C1 (configuration not stated)            3.39
15                Oc1ccc(Cl)cc1CNCc1ccccc1Cl         -0.0124
16   CSCC1CCN(C(=O)Cn2ncc(N3CCCCC3)cc2=O)CC1           -3.95
17  CS(=O)(=O)NCCC(=O)N1CCCC1c1noc(C2CC2)n1 (configuration not stated)           -10.4
18   CCCS(=O)(=O)N1CCC2(CC1)CN(c1ccccn1)CCO2            6.66
19  Cc1cc2c(=O)n3c(nc2s1)CCN(Cc1[nH]cnc1C)CC3            -9.9
20   CCN1C(=O)C2(CCOCC2)c2cc(NC(=O)COC)ccc21           -0.82
21  COc1cc(OC)nc(N2CCCC(c3nccn3CCN(C)C)C2)n1 (configuration not stated)            5.12
22  Cc1ncsc1C(=O)N1CC(C)Sc2ccccc21 (configuration not stated)          -0.663
23  Cc1ccc(C(=O)N2CC[C@H](Oc3cccnc3C)[C@@H](O)CC2)s1           -5.58
24    Cc1nn(C)c2c(N(C)Cc3cccs3)nc(C3CC3)nc12            -126
25  Cc1cccc(NC(=O)N2CCN(Cc3nnc(C(C)C)o3)CC2)c1           -1.02
26  Cc1ccoc1C(=O)N1CC[C@H]2O[C@@H](C)C[C@H]2C1           -4.93
27  CSCC1CCCN(c2ncnc3oc(C)nc23)C1 (configuration not stated)            4.03
28  CC(C)(C)c1cc(C[C@H]2CNCC[C@H]2CC(=O)Nc2ccccc2)no1            -2.4
29  O=C(O)C(c1ccc(O)cc1)N1CCC(N2CCSCC2)CC1 (configuration not stated)           0.646
30  O=C(CC1CC1)N1C[C@@H]2CN(c3ccccc3)C(=O)[C@@H]2C1           -1.48
31  COc1ccc(C(=O)Nc2n[nH]c(C3CCCO3)n2)cc1 (configuration not stated)           -2.46
32  CNc1ncc(C(=O)N2CCOC(C(=O)Nc3ccccc3)C2)cn1 (configuration not stated)           -4.35
33  O=C(c1ccc(S(=O)(=O)N2CCSCC2)cc1)N1CCC(O)C1 (configuration not stated)            4.91
34  Cc1ccc(C(NCC(=O)N2CCNC(=O)C2)c2ccccc2)cc1 (configuration not stated)             2.1
35  COCCN1CCCC(c2ncc(C(=O)N3CCOCC3)c(C)n2)C1 (configuration not stated)           0.893
36  CCc1cnc2c(c1Nc1ccc(OC)cc1)c(=O)n(C)c(=O)n2C            4.26
37  CCS(=O)(=O)N1CCO[C@H]2[C@H](OCCCn3cccn3)CC[C@@H]21           -5.04
38  Cc1nc(CNC(=O)c2cc(COc3cccc(F)c3)[nH]n2)n[nH]1           -2.52
39        O=C(O)C1CN(c2cncc(Cc3ccccc3F)n2)C1             5.7
40  CCOCC(=O)N1C[C@@H]2CC[C@H]1CN(C(=O)c1ccncc1)C2          0.0793
41   CCN(Cc1cccc(C)c1)Cn1nc(C)c2c(C)onc2c1=O           -1.03
42  O=C(NCCc1ccccn1)N1CCOC(c2ccccc2Cl)C1 (configuration not stated)           -7.75
43  O=C(c1ccoc1)N1C[C@@H]2OCCN(c3ncccn3)[C@@H]2C1            5.09
44  CCCC1CCCN(C(=O)CNC(=O)c2ccoc2C)CC1 (configuration not stated)               4
45   CCC(=O)N1CCC(c2nnc(Cn3cccn3)n2C2CC2)CC1           -12.6
46  Cc1nc(S(=O)(=O)NCCC(=O)NCc2ccc(C#N)cc2)cn1C            5.17
47  CC1CCC(NC(=O)Nc2ccc(CC(=O)N(C)C)cc2)CC1 (configuration not stated)            3.85
